Target: T1, human IL-33 (R&D Systems, #3625-IL-010/CF) (human, UniProt O95760 112-270)
T1 construct: Commercial recombinant protein; also called hIL-33; interleukin-33
T1 sequence (looked up): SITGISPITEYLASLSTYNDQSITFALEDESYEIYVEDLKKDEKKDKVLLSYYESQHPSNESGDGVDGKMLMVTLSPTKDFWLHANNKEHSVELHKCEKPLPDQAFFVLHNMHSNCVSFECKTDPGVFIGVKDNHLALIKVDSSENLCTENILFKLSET
Experiment: SPR 37C pH7.4, mAb captured
List of kon values.
Just the number please, in M⁻¹ s⁻¹, no unit attached.

Consider the reported kon for these binders:
- binder: "H4H9633P (antibody, human IgG4, V domains shown, Human IgG4 Fc (H4H)) VH: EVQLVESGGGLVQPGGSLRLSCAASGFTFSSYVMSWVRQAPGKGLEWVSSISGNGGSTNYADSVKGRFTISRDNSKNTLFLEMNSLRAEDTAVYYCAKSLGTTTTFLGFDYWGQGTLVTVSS VL: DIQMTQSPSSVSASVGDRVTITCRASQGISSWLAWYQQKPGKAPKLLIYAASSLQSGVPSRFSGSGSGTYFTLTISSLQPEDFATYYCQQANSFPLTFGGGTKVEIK"
  value_unit: "M⁻¹ s⁻¹"
  kon: 740000
- binder: "H4H9676P (antibody, human IgG4, V domains shown, Human IgG4 Fc (H4H)) VH: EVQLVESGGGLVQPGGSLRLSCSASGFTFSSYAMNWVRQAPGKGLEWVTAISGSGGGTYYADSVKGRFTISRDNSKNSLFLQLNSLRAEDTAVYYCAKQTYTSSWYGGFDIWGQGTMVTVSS VL: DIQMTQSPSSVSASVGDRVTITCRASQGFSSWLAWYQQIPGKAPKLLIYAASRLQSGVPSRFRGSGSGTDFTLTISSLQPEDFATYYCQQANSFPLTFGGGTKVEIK"
  value_unit: "M⁻¹ s⁻¹"
  kon: "1.38e+06"

Now for a further binder.
Could you please provide reported kon for H4H9665P (antibody, human IgG4, V domains shown, Human IgG4 Fc (H4H)) VH: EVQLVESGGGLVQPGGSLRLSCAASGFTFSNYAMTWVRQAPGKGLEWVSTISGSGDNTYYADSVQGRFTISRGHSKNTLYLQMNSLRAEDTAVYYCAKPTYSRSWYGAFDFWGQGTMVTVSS VL: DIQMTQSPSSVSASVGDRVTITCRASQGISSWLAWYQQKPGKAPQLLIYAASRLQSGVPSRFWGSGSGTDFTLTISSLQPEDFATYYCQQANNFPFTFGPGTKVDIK ? Thanks!
1.21e+06
